Test system: OVCAR-5 ovarian
PROCEDURE DETAILS: NCI-60 one-dose screen, 48 h
CONDITION PARAMETERS: 10 µM unless noted
Compounds without any hit were thinned out: in the full panel of roughly 83,000, 20% have a hit. The source made the active and inactive calls. The calls were made as follows: active = growth percent below 10; inactive = the rest.
Possible outcomes: true (1) for active, false (0) for inactive

>>> class("C=C(C)[C@H]1CC/C(C)=C/CC[C@]2(C)O[C@H]2CC/C(C=O)=C\\C1O (stereo not given in full)")
"false (0)"
>>> class("COc1ccc(C2=NN(C(C)=O)C(c3cc(OC)c(OC)c(OC)c3)C2)cc1 (stereo not given)")
"false (0)"
>>> class("c1coc([C@@H]2C[C@@H]3Cc4ccc5ccccc5c4N2O3)c1")
"false (0)"
>>> class("CCC(CC)NCCCCCNc1cc(OC)cc2cccnc12")
"false (0)"
>>> class("COc1cc2c(cc1OCCCCCn1c(-c3ccc(OCc4ccccc4)cc3)nc3cc(N4CCOCC4)ccc31)N=C[C@@H]1CCCN1C2=O")
"true (1)"
>>> class("CCN(CC)CCOc1ccc(C2=C(c3ccccc3)CCc3cc(OC)ccc32)cc1")
"false (0)"
>>> class("O=C(/C(=C/c1cccc([N+](=O)[O-])c1)c1ccccc1)c1ccccc1")
"false (0)"
>>> class("COc1cc(C2CC(=O)Nc3c2cc(Br)c2ccccc32)cc(Br)c1OC (stereo not given)")
"false (0)"
>>> class("O=C(/C=C/c1ccc(O)c(O)c1)N1CCN(c2ccc(Cl)cc2)CC1")
"false (0)"
>>> class("O=c1cc(-c2cccnc2)oc2c1ccc1ccccc12")
"false (0)"
>>> class("COc1ncc(-c2ccc3nccc(C#CCN4CCN(S(C)(=O)=O)CC4)c3c2)cc1NS(=O)(=O)c1ccc(F)cc1F")
"false (0)"
>>> class("O=C1NCC(Nc2ccc(Br)cc2Cl)C(=O)N1 (stereo not given)")
"false (0)"
>>> class("CCc1ccc(CCN2C(=O)c3ccccc3C2=O)nc1")
"false (0)"
>>> class("CN(C)c1nc(-c2ccco2)n2nc(-c3ccco3)cc2n1")
"false (0)"
>>> class("Cc1ccc(C(C)C)cc1NC(=O)Nc1ccc([N+](=O)[O-])cc1")
"false (0)"
>>> class("c1cnc2n[nH]c(Nc3ncnc4c3sc3ncccc34)c2c1")
"false (0)"
>>> class("COc1ccc(-c2csc(NC(=O)c3cc(O)c(O)c(O)c3)n2)cc1")
"false (0)"
>>> class("O=C1c2ccccc2C(=O)c2c1cccc2-n1nnc2ccccc21")
"false (0)"
>>> class("COc1ccc(-c2csc(NC(=O)c3cc(OC)c(OC)c(OC)c3)n2)cc1")
"false (0)"
>>> class("C[N+]1(CCC[N+]2(C)C[C@@H]3[C@H](C2)[C@@H]2C=C[C@H]3C2)CCOCC1 (stereo not given in full)")
"false (0)"

---

System: DU-145 prostate
PROCEDURE DETAILS: NCI-60 one-dose screen, 48 h (100 = growth as untreated, 0 = no growth, -100 = all killed)
CONDITION PARAMETERS: 10 µM unless noted
This is part of a sample that, as a whole, favours compounds with a hit. Of some 83,000 tested, about 20% had one in any assay. Active and inactive are the calls of the source. How the source made its calls: active means growth percent below 10; inactive means the rest.
PARAMETER: growth

>>> result("CCCC[N+](CCCC)=c1ccc2nc3c(C)cc(N(CC)CC)cc3sc-2c1")
"13.7% (inactive)"
>>> result("Cc1nn(-c2ccccc2)c2ncc3c(c12)C(=O)N(Cc1ccccc1)C3=O")
"98.9% (inactive)"
>>> result("CCN(CC)c1ccc(CN(CC(=O)c2ccc(Cl)c(Cl)c2)Cc2ccccc2)cc1")
"104% (inactive)"

Origin of measurements: PubChem BioAssay (NCI)
